# System: DU-145 prostate
# assay_text: NCI tumour cell line growth inhibition, 48 h
reported_endpoint: TGI

Here's what some known entries look like.
response.value for C(=Nc1ccc(-c2nc3ccccc3[nH]2)cc1)c1ccc[nH]1 (field: TGI) = > 100 µM

response.value for O=c1oc2ccc([N+](=O)[O-])cc2c(Nc2ccc3c(c2)Sc2ccccc2O3)c1[N+](=O)[O-] (field: TGI) = 99.5 µM

response.value for O=C1Nc2ccccc2Cn2c1cc1oc(-c3ccccc3)cc12 (field: TGI) = > 100 µM

response.value for COc1cc(NS(C)(=O)=O)ccc1Nc1c2ccccc2nc2ccccc12 (field: TGI) = 2.59 µM [middle of 5 runs]

response.value for COC(=O)C(=CNC(N)=O)C(=O)OC (field: TGI) = > 100 µM

Attention now turns to another entry.
response.value for Cc1cc(S(=O)(=O)/N=C/N(C)C)c(SC(=O)c2ccc(Cl)cc2)cc1Cl (field: TGI) = > 100 µM

* * *

# System: HCT-116 colon
# assay_text: NCI tumour cell line growth inhibition, 48 h
Field: TGI. Provide a value for each of the molecules that follow.

Record TGI per entry; entries follow.
1. O=[N+]([O-])c1ccc(C2CC(c3ccccc3Cl)=Nc3ccccc3S2=O)cc1 (stereo unspecified)
2. O=C(NC1CCCCC1)c1cc2ccccc2cc1O
3. CCOC(=O)c1c(C)n(Cc2ccccc2)c2c1cc(O)c1[nH]c(Cc3ccccc3)nc12
4. O=C(O)C[C@@H]1[C@@H](O)[C@@H](O)CN2C(=O)c3ccccc3[C@H]12

1: 3.49 µM; 2: 47.6 µM; 3: > 43.5 µM; 4: > 100 µM

Record TGI per entry; entries follow.
1. CNC(=S)N/N=C(\C(=N/NC(=S)NC)c1ccccn1)c1ccccn1
2. CS(=O)(=O)NNS(=O)(=O)c1ccccc1
3. O=C(O)C1CCCCC1c1c2ccc(=O)c(O)c-2oc2c(O)c(O)ccc12 (stereo unspecified)
4. CCOC(=O)C[n+]1cccc(C2(c3cc4ccccc4[nH]3)OCCO2)c1
5. Cc1ccc(/C=C2\CN(C(=O)C(Cl)Cl)C/C(=C\c3ccc(C)cc3)C2=O)cc1
6. Oc1ccc(Cl)cc1-c1cc(-c2ccccc2)nc(NCN2CCCCC2)n1

1: > 100 µM; 2: > 100 µM; 3: 28.4 µM; 4: > 100 µM; 5: 0.194 µM; 6: > 100 µM

response.value for Cc1c(CCO)c(=O)n2c([nH]c3ccccc32)c1C#N (field: TGI) = > 100 µM

* * *

Field: TGI. Provide a value for each of the compounds that follow.
# System: HT29 colon
# assay_text: NCI tumour cell line growth inhibition, 48 h

response.value for CC(C)CCCC(C)[C@H]1CC[C@H]2[C@@H]3CC[C@H]4C[C@@H](CCC=C(c5cc(Cl)c(O)c(C(=O)OC(C)C)c5)c5cc(Cl)c(O)c(C(=O)OC(C)C)c5)CC[C@]4(C)[C@H]3CC[C@]12C (some centres undefined) (field: TGI) = > 50 µM

Record TGI per entry; entries follow.
1. CC(=O)c1c(CN(C)c2ccccc2)n([O-])c2ccccc2[n+]1=O
2. COP(=O)(OC)C(NC(=O)C(F)(F)F)(c1ccccc1)C(F)(F)F (centres undefined)
3. CC1(C)O[C@@H](CCl)C[C@H](C#N)O1

1: 49.2 µM; 2: > 100 µM; 3: > 100 µM

These measurements were taken from PubChem BioAssay (NCI).
